In this section we review reported viability values for a set of molecules.
# test protocol: reversal of MRP1-mediated doxorubicin resistance, pilot screen, H69AR cells, doxorubicin co-treatment (AID 601)
# condition info: H69AR cells + 2 uM doxorubicin, CellTiter-Glo, 72 h; measured here: viability with 2 uM doxorubicin; at 10 µM; stronger effect = lower value
Report as a plain number; the unit % is understood.

Answered cases to consult:
{"molecule": "CCOC(=O)C1CCN(CC(=O)c2c(C)[nH]c3ccccc23)CC1", "numeric result": 91.9}
{"molecule": "CCCOc1ccccc1C1CC(=O)Nc2cc3c(cc21)OCCO3 (stereo unspecified)", "numeric result": 73.5}
{"molecule": "O=C(CCn1cccc1)N1CCc2ccccc21", "numeric result": 87.6}
{"molecule": "O=C(NCC1CCCO1)c1ccc(N2CCCCC2)nc1 (stereo unspecified)", "numeric result": 85.6}
{"molecule": "Cc1ccc(CN2CCN(C(=O)C3CCC3)CC2)cc1", "numeric result": 92.9}
{"molecule": "CN(C)c1ccc(C=NCC2(O)CCOC(C)(C)C2)cc1 (stereo unspecified)", "numeric result": 88.9}
{"molecule": "CC(C)(C)NC(=O)C(Cc1ccccc1)NS(=O)(=O)c1cccc2nsnc12 (stereo unspecified)", "numeric result": 95.3}
{"molecule": "CC(=O)Nc1ccc(S(=O)(=O)N(CC(=O)O)Cc2ccccc2)cc1", "numeric result": 104}

Ask | Which viability is reported for this molecule? CC(=O)N1C(=O)c2cccc3cccc(c23)C(=O)N1C(C)=O
Reply | 93

Ask | Which viability is reported for this molecule? Cc1ccc2[nH]c(=O)c(C(c3nnnn3CCc3ccccc3)N3CCOCC3)cc2c1 (stereo unspecified)
Reply | 87.8

Ask | Which viability is reported for this molecule? Cc1nnc(SCC(=O)N2CCC(C(N)=O)CC2)s1
Reply | 99.8

###

# test protocol: HUVEC growth inhibition – cell-based, human, primary screen (AID 575);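 note: 100% = median of untreated cell wells with 0.1% DMSO on each plate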
# condition info: HUVEC proliferation, CellTiter-Glo luminescence, 72 h; at 10 µM; stronger effect = lower value
measured endpoint: viability (%)
Report as a plain number; the unit % is understood.

{"molecule": "CN/C(=C/[N+](=O)[O-])NCCSCc1ccc(CN(C)C)o1", "value unit": "%", "numeric result": 87.7}
{"molecule": "CC(C)(C)c1ccc(-c2nnc(SCCC#N)n2C2CCCC2)cc1", "value unit": "%", "numeric result": 65.7}

Ask | Which viability is reported for this molecule? O=C(Nc1nonc1NC(=O)C1CCCCC1)C1CCCCC1
Reply | 84.7

Ask | Which viability is reported for this molecule? COc1ccc2cnn(-c3ccccc3C)c(=O)c2c1OC
Reply | 85.5

Ask | Which viability is reported for this molecule? CC(=O)c1cc(-c2ccccc2)n(CC(=O)N2CCN(C3CCCC3)CC2)c1C
Reply | 98.7

Ask | Which viability is reported for this molecule? CCOc1nc(-c2ccncc2)nc2ccccc12
Reply | 93.7

Ask | Which viability is reported for this molecule? COc1ccc(NC(=O)N2CCN(c3nc(-c4cccc(OC)c4)cs3)CC2)cc1
Reply | 49.3

Ask | Which viability is reported for this molecule? Cc1nn(-c2nc3ccccc3s2)c(C)c1Oc1ccccc1O
Reply | 20.3

Ask | Which viability is reported for this molecule? C[C@]12CC[C@@H]3c4ccc(O)cc4CC[C@H]3[C@@H]1CCC2=O
Reply | 63.4

Ask | Which viability is reported for this molecule? CC1=C(/C=C/C(C)=C/C=C/C(C)=C/C(=O)O)C(C)(C)CCC1
Reply | 83.7

Ask | Which viability is reported for this molecule? Cc1c(OCC(F)(F)F)ccnc1CS(=O)c1nc2ccccc2[nH]1 (stereo unspecified)
Reply | 100

Ask | Which viability is reported for this molecule? O=C(CSCc1cccs1)N1CCCC1
Reply | 93.6

Ask | Which viability is reported for this molecule? COc1ccccc1CCNC(=O)C1CCCO1 (stereo unspecified)
Reply | 92.1

Ask | Which viability is reported for this molecule? CC(=O)Nc1ccc(S(=O)(=O)N2CCSC2c2ccccc2)cc1 (stereo unspecified)
Reply | 99.6

Ask | Which viability is reported for this molecule? CCOC(=O)C1CCN(C(=O)Nc2ccc(Cl)cc2Cl)CC1
Reply | 100

Ask | Which viability is reported for this molecule? CCn1nccc1C(=O)Nc1nccs1
Reply | 104

Ask | Which viability is reported for this molecule? COCCNC(=O)CCCCCN1C(=O)CCC1=O
Reply | 105

Ask | Which viability is reported for this molecule? C=CCn1c(SCc2cc(=O)n3ccsc3n2)nnc1C1CCCCC1
Reply | 93.1

From: PubChem BioAssay
